Data credit: ChEMBL document CHEMBL6134873

assayed-system: Cytochrome P450 2C9 (Homo sapiens)
Sequence (P11712 whole entry): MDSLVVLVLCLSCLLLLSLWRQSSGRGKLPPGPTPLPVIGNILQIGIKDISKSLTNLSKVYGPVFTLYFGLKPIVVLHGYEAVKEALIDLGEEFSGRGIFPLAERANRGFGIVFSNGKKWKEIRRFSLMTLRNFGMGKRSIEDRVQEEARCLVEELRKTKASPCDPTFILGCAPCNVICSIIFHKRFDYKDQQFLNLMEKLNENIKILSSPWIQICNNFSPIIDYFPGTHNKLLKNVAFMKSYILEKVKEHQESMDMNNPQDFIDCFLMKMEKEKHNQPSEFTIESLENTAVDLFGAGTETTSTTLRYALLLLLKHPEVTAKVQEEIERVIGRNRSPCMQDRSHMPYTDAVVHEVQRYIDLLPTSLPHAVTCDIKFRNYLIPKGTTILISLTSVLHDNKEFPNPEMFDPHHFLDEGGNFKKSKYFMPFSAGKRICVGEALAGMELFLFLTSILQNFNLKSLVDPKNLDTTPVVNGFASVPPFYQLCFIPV
pIC50: −log10 of the molar value.

| smiles-repr | pIC50 |
| --- | --- |
| COc1ccccc1[C@H](Cn1c(=O)n([C@H]2C[C@@](C)(C(=O)O)C2)c(=O)c2c(C)c(-c3ncco3)sc21)OC1CCOCC1 | < 4.52 |

----------
experiment-summary: Intrinsic clearance in human liver microsomes
Type: ADME, Microsome
experimental-parameters: read-out: CLH
test-readout: CLint scaled (mL/min/kg)

| compound | test-readout | comparison-operator | val |
| --- | --- | --- | --- |
| COc1ccccc1[C@H](Cn1c(=O)n(C(C)(C)C(=O)O)c(=O)c2c(C)c(-c3ncco3)sc21)OC1CCOCC1 [FIRSOCOSTAT] | CLint scaled | = | 6 |
| COc1ccccc1[C@H](Cn1c(=O)n([C@H]2C[C@@](C)(C(=O)O)C2)c(=O)c2c(C)c(-c3ncco3)sc21)OC1CCOCC1 | CLint scaled | < | 8.6 |

----------
Below: a set of entries, each annotated with reported CLint scaled.
experiment-summary: Intrinsic clearance in mouse liver microsomes
Format: ADME, Microsome
experimental-parameters: read-out: CLH

| molecule | comparison-operator | CLint scaled [mL/min/kg] |
| --- | --- | --- |
| COc1ccccc1[C@H](Cn1c(=O)n([C@H]2C[C@@](C)(C(=O)O)C2)c(=O)c2c(C)c(-c3ncco3)sc21)OC1CCOCC1 | = | 44.4 |
| COc1ccccc1[C@H](Cn1c(=O)n(C(C)(C)C(=O)O)c(=O)c2c(C)c(-c3ncco3)sc21)OC1CCOCC1 [FIRSOCOSTAT] | < | 38 |

----------
experiment-summary: AUC (0 to t) in Sprague-Dawley rat at 1 mg/kg, iv measured for 0.25 to 24 hrs by LC-MS/MS analysis
Type: ADME, organism-based
experimental-parameters: in vivo, time 0.25-24 hrs
# AUC(0-t) listing for each entry below

| smiles-repr | AUC(0-t) |
| --- | --- |
| COc1ccccc1[C@H](Cn1c(=O)n(C(C)(C)C(=O)O)c(=O)c2c(C)c(-c3ncco3)sc21)OC1CCOCC1 | 409 ng·h/mL |
| COc1ccccc1[C@H](Cn1c(=O)n([C@H]2C[C@@](C)(C(=O)O)C2)c(=O)c2c(C)c(-c3ncco3)sc21)OC1CCOCC1 | 263 ng·h/mL |
| COc1ccccc1[C@H](Cn1c(=O)n([C@H]2C[C@@H](C(=O)O)C2)c(=O)c2c(C)c(-c3ncco3)sc21)OC1CCOCC1 | 80.8 ng·h/mL |

----------
experiment-summary: Intrinsic clearance in rat liver microsomes
Type: ADME, Microsome
experimental-parameters: read-out: CLH

| smiles-repr | comparison-operator | CLint scaled, mL/min/kg |
| --- | --- | --- |
| COc1ccccc1[C@H](Cn1c(=O)n(C(C)(C)C(=O)O)c(=O)c2c(C)c(-c3ncco3)sc21)OC1CCOCC1 | = | 4.3 |
| COc1ccccc1[C@H](Cn1c(=O)n([C@H]2C[C@@](C)(C(=O)O)C2)c(=O)c2c(C)c(-c3ncco3)sc21)OC1CCOCC1 | < | 17.3 |

----------
experiment-summary: Protein binding in mouse plasma
Assay type: ADME, cell-free
experimental-parameters: read-out: PPB (converted)
test-readout: fraction unbound

| smiles-repr | val |
| --- | --- |
| COc1ccccc1[C@H](Cn1c(=O)n([C@H]2C[C@@](C)(C(=O)O)C2)c(=O)c2c(C)c(-c3ncco3)sc21)OC1CCOCC1 | 0.054 |
